Test: Therapeutic index, ratio of IC50 for African green monkey Vero cells to IC50 for Plasmodium falciparum V1/S harboring DHFR N51I/C59R/S108N/I164L mutant
Format: toxicity
Conditions: read-out: Ratio IC50
I'd appreciate it if you could supply selectivity ratio values for the items below.
# output: bare number, no unit

# compound CC1(C)N=C(N)N=C(N)N1OCCCCc1ccccc1 ; its selectivity ratio = 46

# compound CC1(C)N=C(N)N=C(N)N1OCCCOc1ccc(Cl)cc1 ; its selectivity ratio = 7

# compound CC1N=C(N)N=C(N)N1OCCCOc1cccc(Cl)c1Cl (stereo unspecified) ; its selectivity ratio = 28

# compound CC1(C)N=C(N)N=C(N)N1OCCCSc1ccc(Cl)cc1 ; its selectivity ratio = 70

# compound CC1(C)N=C(N)N=C(N)N1OCCCc1ccccc1 ; its selectivity ratio = 79

###

Test system: DHFR (human against Plasmodium falciparum DHFR)
Test: Selectivity index, ratio of Ki for human DHFR expressed in Escherichia coli BL21 to Ki for Plasmodium falciparum DHFR expressed in Escherichia coli BL21
Assay type: toxicity
Settings: read-out: Ratio Ki
I'd appreciate it if you could supply selectivity ratio values for the items below.
# output: bare number, no unit

# molecule NC1=NC(c2ccccc2)N(OCCCOc2cc(Cl)c(Cl)cc2Cl)C(N)=N1 (configuration not stated) ; its selectivity ratio = 242

# molecule CC1(C)N=C(N)N=C(N)N1OCCCSc1ccccc1Cl ; its selectivity ratio = 35

# molecule CC1(C)NC(N)=NC(=N)N1OCCc1ccccc1 ; its selectivity ratio = 39

# molecule CC1(C)N=C(N)N=C(N)N1OCCCOc1ccc(F)cc1Cl ; its selectivity ratio = 94

# molecule CC1(C)N=C(N)N=C(N)N1OCCCNc1ccc(Cl)c(Cl)c1 ; its selectivity ratio = 40

# molecule CCN(CC)CCCON1C(N)=NC(N)=NC1(C)C ; its selectivity ratio = 230

# molecule CC1N=C(N)N=C(N)N1OCCCOc1cccc(Cl)c1Cl (configuration not stated) ; its selectivity ratio = 49

# molecule CC1(C)N=C(N)N=C(N)N1OCCCSc1ccc(Cl)cc1 ; its selectivity ratio = 40

# molecule CC1(C)N=C(N)N=C(N)N1OCCCc1ccccc1 ; its selectivity ratio = 36

# molecule CC1(C)NC(N)=NC(=N)N1OCCCSc1ccccc1 ; its selectivity ratio = 58

# molecule CC1(C)N=C(N)N=C(N)N1OCCCSc1cccc(Cl)c1 ; its selectivity ratio = 34

# molecule CC1N=C(N)N=C(N)N1OCCCOc1ccc(F)cc1Cl (configuration not stated) ; its selectivity ratio = 229

###

I'd appreciate it if you could supply log10 of IC50 values for the items below.
Test system: Vero
Experiment: Cytotoxicity against African green monkey Vero cells assessed as reduction in cell viability incubated for 72 hrs by SRB assay
Format: cell-based
Settings: Chlorocebus sabaeus
Reminder: these figures are log10 of reported IC50, in µM before transformation.

# compound CC1(C)N=C(N)N=C(N)N1OCCCOc1ccccc1 ; its log10 of IC50 = 1.52

# compound CC1(C)N=C(N)N=C(N)N1OCCCSc1ccc(Cl)cc1 ; its log10 of IC50 = 1.26

# compound CC1(C)NC(N)=NC(=N)N1OCCc1ccccc1 ; its log10 of IC50 = 1.08

# compound CC1(C)N=C(N)N=C(N)N1OCCCOc1cccc(Cl)c1Cl ; its log10 of IC50 = 0.99

# compound CC1(C)N=C(N)N=C(N)N1OCCCOc1ccc(Cl)cc1 ; its log10 of IC50 = -0.77

# compound CC1(C)N=C(N)N=C(N)N1OCCSc1ccc(Cl)cc1 ; its log10 of IC50 = 1.15

Taken from ChEMBL document CHEMBL4765292.
